Provenance of the data: patent US9708336B2

target: VIM-1 (Pseudomonas aeruginosa (strain ATCC 15692 / DSM 22644 / CIP 104116 / JCM 14847 / LMG 12228 / 1C / PRS 101 / PAO1), UniProt A0A0F7KYQ8); test: Enzyme activity: determination of IC50, fluorescence assay with CCF2-FA substrate (VIM-1); type: biochemical; settings: VIM-1 enzyme, CCF2-FA fluorescence assay; read-out: VIM-1 IC50
Some compounds, each annotated with its measured pIC50.
Conceptually, pIC50 converts a concentration in mol/L into minus its log10.

INSERT INTO measurements (compound, metric_name, observed) VALUES
  ('NS(=O)(=O)c1cccc(-c2ccc(CNCCc3c[nH]cn3)cc2)c1-c1nnn[nH]1 [Example 384]', 'pIC50', 6.65),
  ('N=C(N)N1Cc2ccc(-c3ccc(C(F)(F)F)c(S(N)(=O)=O)c3-c3nn[nH]n3)cc2C1 [Example 446]', 'pIC50', 9.60),
  ('NS(=O)(=O)c1c(Br)ccc(-c2ccc(C3CCNCC3)cc2)c1-c1nnn[nH]1 [Example 259]', 'pIC50', 8.51);

Fill in reported pIC50 for this entry: NS(=O)(=O)c1cccc(-c2ccc(CNC3CC(F)(F)C3)cc2)c1-c1nnn[nH]1 [Example 339]
6.21

Fill in reported pIC50 for this entry: NS(=O)(=O)c1cccc(-c2ccnc3ccccc23)c1-c1nn[nH]n1 [Example 319]
9.05

Fill in reported pIC50 for this entry: Nc1ccnc2cc(-c3ccc(C(F)(F)F)c(S(N)(=O)=O)c3-c3nnn[nH]3)ccc12 [Example 478]
9.19

Fill in reported pIC50 for this entry: NS(=O)(=O)c1c(Br)ccc(-c2ccc3c(c2)CNC3)c1-c1nn[nH]n1 [Example 272]
8.26
